- assay-remarks: A CellTox Green Cytotoxicity Assay to monitor cytotoxicity in HepG2 cells - 24 hour (AID 1224878); note: nearly all actives have a fitted effect of over 45% in size
- condition: CellTox Green fluorescence; series mostly up to 76.8 µM
Records with an inconclusive call do not appear. Active and inactive are the calls of the source. Calls come from the whole dose curve; as a rule, active = well fitted activation curve with a large enough effect in the repeat runs; inconclusive = weak or mixed curves; inactive = flat fitted curve, though single readings scatter.
endpoint-name: outcome

{"columns": ["molecule", "outcome"],
 "data": [
  ["CN1C(=O)CCS(=O)(=O)C1c1ccc(Cl)cc1 (stereo unspecified)", "inactive"],
  ["O=C/C=C/c1ccccc1", "inactive"],
  ["CNC(=O)O/N=C/C(C)(C)S(C)(=O)=O", "inactive"],
  ["OCc1ccco1", "inactive"]
]}

Lab note: measured outcome of CN(C)C(=O)C(c1ccccc1)c1ccccc1 was inactive

Lab note: measured outcome of C=C(C)C(=O)OCC(CC)CCCC (stereo unspecified) was inactive

Lab note: measured outcome of Cc1ccccc1N was inactive

Lab note: measured outcome of CC(C)CCCCCCOC(=O)c1ccccc1C(=O)OCCCCCCC(C)C was inactive
